# Tested on: HT29 colon
# experiment.description: NCI-60 one-dose screen, 48 h
# test.conditions: 10 µM unless noted
This is part of a sample that, as a whole, favours compounds with a hit. Of some 83,000 tested, about 20% had one in any assay. Activity calls are given as the source filed them. The calls were made as follows: active = growth percent below 10; inactive = the rest.
Result category, one only: Y for active, N for inactive

Called result for O=C(c1nc2ccccc2[nH]1)C1C(c2ccc([N+](=O)[O-])cc2)C2CC3CCCCC3N2[C@@]12C(=O)Nc1cc(Cl)ccc12 (some centres not stated)
N

Called result for O=C(Cn1cc(COc2ncnc3c2cnn3-c2ccccc2)nn1)Nc1cccc2ccccc12
N

Called result for COc1ccc(OC)c(NC(=O)/C(C#N)=C/c2ccco2)c1
N

Others:
Called result for CN1C(=O)N(C)C2(c3ccccc3)n3c(s/c(=C\c4ccccc4)c3=O)=NNC12c1ccccc1 (configuration not stated)
N

Called result for O=C1/C(=C/c2cccc(O)c2)COc2ccc(O)cc21
N

Called result for Cn1c(/C=C(\C#N)c2cccc(C(F)(F)F)c2)nc2c(N3CCOCC3)nc(Cl)nc21
Y

Called result for Nc1nonc1-n1nncc1-c1cccnc1
N

----------
# Test system: UACC-62 melanoma
# experiment.description: NCI-60 one-dose screen, 48 h
# test.conditions: 10 µM unless noted
This is part of a sample that, as a whole, favours compounds with a hit. Of some 83,000 tested, about 20% had one in any assay. Active and inactive are the calls of the source. Rule for the calls: active = growth percent below 10; inactive = the rest.
Result category, one only: active, inactive

Called result for COCCN(C(=O)Cc1cccs1)C(C(=O)NCc1ccc(OC)cc1)c1ccc(C(C)C)cc1 (stereo not given)
inactive

Called result for CCOC(=O)C1=C(C)N=c2s/c(=C\c3cc(Cl)ccc3O)c(=O)n2C1c1ccc(OC)cc1 (stereo not given)
inactive

Called result for O=C(Nc1ccc(Br)cc1F)c1cc(I)ccc1O
active

Called result for O=C(Nc1ccccc1O)c1ccc(-c2ccc(Cl)cc2Cl)o1
inactive

Called result for COC(=O)c1c2c(c(C)[n+]([O-])c1C)C(=O)C=C(NCc1ccc(F)c(F)c1)C2=O
active

Others:
Called result for O=c1oc2ccc(-c3ccc(F)cc3F)cc2c(=O)n1-c1ccc(Cl)c(C(F)(F)F)c1
active

Called result for O=c1c(-c2nc3ccccc3[nH]2)cc2ccccc2n1Cc1cn(Cc2ccccc2Cl)nn1
inactive

----------
# Tested on: PC-3 prostate
# experiment.description: NCI-60 one-dose screen, 48 h
# test.conditions: 10 µM unless noted
About 83,000 compounds went through this panel and 20% of them were active in at least one assay; those are over-represented in the sample as a whole. The source made the active and inactive calls. How the source made its calls: active means growth percent below 10; inactive means the rest.
Result category, one only: true (1) (active), false (0) (inactive)

Called result for Nc1ccc(-c2nn3c(CCC(=O)c4nc5ncccc5[nH]4)nnc3s2)c(O)c1
false (0)

Called result for COC(=O)/C(=C\c1c(-c2ccccc2)[nH]c2ccccc12)S(C)(=O)=O
false (0)

Called result for CCOc1ccc2nc(C)cc(Nc3ccc(Br)cc3)c2c1
false (0)

Called result for COc1cc(-c2c3c(c(Br)n2Cc2ccccc2)-c2nc(N)sc2CC3)cc(OC)c1OC
false (0)

Called result for O=c1oc2ccc(I)cc2c(=O)n1-c1ccc(Cl)cc1F
true (1)

Others:
Called result for Cc1ccc(CN2CCC(C(=O)Nc3ccc(-c4cc5ccccc5[nH]4)cc3)CC2)o1
true (1)

Called result for CCOC(=O)c1cc2c(n1Cc1ccccc1)-c1oncc1CCC2
false (0)

Called result for COc1ccc(-c2nsc3c2NC(=O)CC3c2ccc3c(c2)OCCO3)cc1 (stereo not given)
false (0)

Called result for O=C(Nc1ccc(-c2nc3ccc(NC(=O)c4ccc(Cl)cc4)cc3[nH]2)cc1)c1ccc(Cl)cc1
false (0)

Called result for C[n+]1c2ccccc2nc2ccc(NCCO)cc21
false (0)
